Biological target: DNA-PK protein complex (Homo sapiens, UniProt P78527)
Assay: Biochemical DNA-PK assay (FlashPlate)
endpoint: IC50

INSERT INTO measurements (smiles_record, measured_target, result) VALUES
  ('Cn1cc(-c2cc(-c3cnc4[nH]c(C(F)(F)F)cc4c3)ccn2)n(-c2ccc(C(C)(C)C#N)cc2)c1=O', 'DNA-PK protein complex (Homo sapiens, UniProt P78527)', '0.0001 to 0.1 µM'),
  ('Cn1cc(-c2cc(-c3cnc(N)c(C#N)c3)ccn2)n(-c2ccc(C(C)(C)C#N)cc2)c1=O', 'DNA-PK protein complex (Homo sapiens, UniProt P78527)', '0.0001 to 0.1 µM'),
  ('Cn1cc(-c2cc(-c3cnc4[nH]ccc4c3)ccn2)n(-c2ccccc2OC(F)(F)F)c1=O', 'DNA-PK protein complex (Homo sapiens, UniProt P78527)', '0.0001 to 0.1 µM'),
  ('CCc1cccc(-n2c(-c3cc(-c4cnc5[nH]ccc5c4)ccn3)cn(C)c2=O)c1', 'DNA-PK protein complex (Homo sapiens, UniProt P78527)', '> 10 µM'),
  ('CC(=O)Nc1ncc(-c2ccnc(-c3cn(C)c(=O)n3-c3cccc(C#N)c3)c2)cc1C(F)(F)F', 'DNA-PK protein complex (Homo sapiens, UniProt P78527)', '0.1 to 10 µM'),
  ('Cn1cc(-c2cc(-c3ccc(N)cc3)ccn2)n(-c2ccc(N3CCNCC3)c(C(F)(F)F)c2)c1=O', 'DNA-PK protein complex (Homo sapiens, UniProt P78527)', '0.0001 to 0.1 µM'),
  ('CC(C)(CN)c1ccc(-n2c(-c3cc(-c4cnc5ccccc5c4)ccn3)c[nH]c2=O)cc1', 'DNA-PK protein complex (Homo sapiens, UniProt P78527)', '0.1 to 10 µM'),
  ('CC(C)(C#N)c1ccc(-n2c(-c3cc(-c4cnc5[nH]ccc5c4)ccn3)c[nH]c2=O)cc1', 'DNA-PK protein complex (Homo sapiens, UniProt P78527)', '0.0001 to 0.1 µM'),
  ('COc1ccc(-c2ccnc(-c3cn(C)c(=O)n3-c3ccc(C(C)(C)C#N)cc3)c2)cc1', 'DNA-PK protein complex (Homo sapiens, UniProt P78527)', '0.0001 to 0.1 µM'),
  ('Cn1cc(-c2cc(-c3cnc4[nH]cnc4c3)ccn2)n(-c2ccc(C(C)(C)C#N)cc2)c1=O', 'DNA-PK protein complex (Homo sapiens, UniProt P78527)', '0.1 to 10 µM'),
  ('Cn1cc(-c2cc(-c3cnc(N)c(C(F)(F)F)c3)ccn2)n(-c2ccc(N3CCNCC3)c(C(F)(F)F)c2)c1=O', 'DNA-PK protein complex (Homo sapiens, UniProt P78527)', '0.1 to 10 µM');
